Attribute: growth inhibition
assay: NCI Yeast Anticancer Drug Screen. Data for the bub3 strain (AID 167); details: S. cerevisiae bub3 mutant strain, at 1.2 µM, active compounds read high
The panel holds about 79,000 compounds, 15% with a hit somewhere; the sample as a whole holds those more often.
Write the answer as a number in %, unit excluded.

INSERT INTO results (compound, value) VALUES
  ('Cn1c(=O)c2c(nc(N)n2C2OC(CO)C(O)C2O)n(C)c1=O (stereo not drawn)', 0),
  ('CCCCC/C(=C(\C#N)C(=O)OCC)c1ccccc1', 0),
  ('O=c1ccc(=O)n(-c2ccccc2)[nH]1', -13);

Exam item: Which growth inhibition is listed for COc1cc([C@@H]2c3cc4c(cc3[C@H](OC3OC5COC(C(C)C)OC5C(O)C3O)C3COC(=O)[C@@H]32)OCO4)cc(OC)c1O (stereo partly drawn) ?
Marked response: -66

Exam item: Which growth inhibition is listed for CNC(=O)OCc1c(COC(=O)NC)c(-c2ccc(Cl)c(Cl)c2)n2c1SCC2 ?
Marked response: -2

* * *

experiment: NCI Yeast Anticancer Drug Screen. Data for the rad52 strain (AID 147);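 note: 0% = growth of vehicle-treated control cultures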; details: S. cerevisiae rad52 mutant growth inhibition; at 100.0 µM
Compounds without any hit were thinned out: in the full panel of roughly 79,000, 15% have a hit. Calls of active or inactive are those of the source. Rule as the data show it: active = growth inhibition above about 70%; inactive = the rest.
The categories you may choose from are active, inactive

Example entries begin here.
INSERT INTO measurements (compound, qualitative_label) VALUES
  ('CC(C)CN(CC(C)C)C(=O)c1ccc(Cl)c(Cl)c1', 'active'),
  ('COc1ccc2c(c1)n([O-])c1ccccc1[n+]2=O', 'active'),
  ('CC(C)OC(=O)c1ccc(CCc2cc(O)c(Br)cc2O)cc1', 'active'),
  ('NC(=O)c1c([N+](=O)[O-])cc(C(F)(F)F)cc1[N+](=O)[O-]', 'inactive'),
  ('O=C(O)c1ccccc1/C=N/N=C1c2ccccc2-c2ccccc21', 'inactive');

Okay, now this compound:
Exam item: Record lookup: outcome of this test for Cc1c2cccc(Sc3ccccc3)c2c2c3c(cccc13)[S+](c1ccccc1)C2 (stereo unspecified) ?
Marked response: active

* * *

experiment: NCI Yeast Anticancer Drug Screen. Data for the rad14 strain (AID 159);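 note: 0% = growth of vehicle-treated control cultures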; conditions: S. cerevisiae rad14 strain growth inhibition; at 33.0 µM; active compounds read high
The panel holds about 79,000 compounds, 15% with a hit somewhere; the sample as a whole holds those more often.
Attribute: growth inhibition
Write the answer as a number in %, unit excluded.

INSERT INTO results (molecule, reported_endpoint, value) VALUES
  ('CC[N+]1(C)CCC(O)(c2ccc(OC)cc2)C(C(=O)c2ccc(OC)cc2)C1 (configuration not stated)', 'growth inhibition', -3);

Exam item: Which growth inhibition is listed for O=C1C=C(c2ccccc2)OC1(c1ccccc1)N1CCOCC1 (configuration not stated) ?
Marked response: 9

Exam item: Which growth inhibition is listed for O=C1CC(=O)c2ccccc21 ?
Marked response: 12

Exam item: Which growth inhibition is listed for CCOC(=O)[C@H]1Nc2ccc(OC)cc2C2c3ccccc3CC21 (some centres not stated) ?
Marked response: 0

Exam item: Which growth inhibition is listed for CCN(CC)Cc1cc(Nc2c3ccccc3nc3c2[nH]c2ccccc23)cc(CN(CC)CC)c1O ?
Marked response: 2

Exam item: Which growth inhibition is listed for CCOC(=O)C#Cc1ccc([N+](=O)[O-])cc1 ?
Marked response: 4

Exam item: Which growth inhibition is listed for COc1oc(C(=O)NC2CCCCC2)c(-c2ccc(Cl)cc2)c1S(=O)(=O)c1ccccc1 ?
Marked response: 82
